Hey, just so you know, these numbers are from the supplement of paper PMC6555819.

- Tested on: THRa:RXRa (NR concentration 90 nM, RXRa partner concentration 90 nM)
- Assay comment: PBM binding z-score (relative to random genomic background probes); higher = stronger binding; sequences stand for … in GC…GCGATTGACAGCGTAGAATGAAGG
Assay endpoint: PBM binding z-score
Numbers only.

These solved cases illustrate the format of a correct answer.
INSERT INTO results (input_sequence, assay_endpoint, result_number) VALUES
  ('CCTACTGGGACATTCAGAGGTCATTGATCATATG', 'PBM binding z-score', 3.38),
  ('TTACCAAGGTTAGCTGAGGTCGTTGATCCAACTC', 'PBM binding z-score', 5.01),
  ('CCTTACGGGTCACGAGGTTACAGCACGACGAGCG', 'PBM binding z-score', 4.16),
  ('TCGAGTAGGCTACCAATGGGGCATTCAGCTTTCT', 'PBM binding z-score', -0.828),
  ('CGAACTAGGTCAGAACAGGACAGTGACGGATGAT', 'PBM binding z-score', 3.31),
  ('GCTTACCGGTCAAAGGTTATAGCATGAATAGAAT', 'PBM binding z-score', 2.2),
  ('TGATATAGGTAAATGCTAGGTGAAAGTCCGATCT', 'PBM binding z-score', 1.18),
  ('TGAATGAGGTTATAAGGTCAGGGAACGTTGCAAA', 'PBM binding z-score', 4.24);

Dear colleague, could you please provide PBM binding z-score for the sequences listed below?
1. ATCGAAAGGCCGAAGGTGAGTATACCCACCCGAA
2. CAAACTAGATCACAGAGGTCAAAGTCCGTGCGTA
3. ATCTCTAGGTTACCAAGTTCAGTGAATGCCGAAC

Result:
1: 0.037; 2: 3.64; 3: 1.97

# sequence TCATATAGGTAATGGTGAAAGTCGAACGATATGA ; its PBM binding z-score = -0.0618
